# protocol-summary: Multiple ascending dose (MAD) study: multiple-dose pharmacokinetics
# Format: in vivo, human
# condition-summary: human, plasma, oral, 40 mg BID, Day 13, 12 hr post-dose (300 h); read-out: Pre-dose (trough) plasma concentration, Mean
property-measured: concentration at 300 h
Report as: number unit

Kindly note the recorded concentration at 300 h for "CC(=O)c1nn(CC(=O)N2[C@H](C(=O)Nc3nc(Br)ccc3C)C[C@@]3(C)C[C@@H]23)c2ccc(-c3cnc(C)nc3)cc12" , which is 15.3 ng/mL

----------
# protocol-summary: Phase I single ascending dose (SAD) study: plasma and urine pharmacokinetics
# Type: in vivo, human
# condition-summary: human, plasma, oral, 120 mg, 120 mg single dose, fasted, plasma; read-out: Vz/F, GM
property-measured: Vd/F (L)
Respond with the bare value in L.

Record "CC(=O)c1nn(CC(=O)N2[C@H](C(=O)Nc3nc(Br)ccc3C)C[C@@]3(C)C[C@@H]23)c2ccc(-c3cnc(C)nc3)cc12" . Reported Vd/F: 1310
